Field: pKd. Provide a value for each of the binders that follow.
# target-under-test: T1, EsCas13d, nuclease-dead (Eubacterium siraeum, UniProt B0MS50, R295A;H300A;R849A;H854A)
# T1 sequence: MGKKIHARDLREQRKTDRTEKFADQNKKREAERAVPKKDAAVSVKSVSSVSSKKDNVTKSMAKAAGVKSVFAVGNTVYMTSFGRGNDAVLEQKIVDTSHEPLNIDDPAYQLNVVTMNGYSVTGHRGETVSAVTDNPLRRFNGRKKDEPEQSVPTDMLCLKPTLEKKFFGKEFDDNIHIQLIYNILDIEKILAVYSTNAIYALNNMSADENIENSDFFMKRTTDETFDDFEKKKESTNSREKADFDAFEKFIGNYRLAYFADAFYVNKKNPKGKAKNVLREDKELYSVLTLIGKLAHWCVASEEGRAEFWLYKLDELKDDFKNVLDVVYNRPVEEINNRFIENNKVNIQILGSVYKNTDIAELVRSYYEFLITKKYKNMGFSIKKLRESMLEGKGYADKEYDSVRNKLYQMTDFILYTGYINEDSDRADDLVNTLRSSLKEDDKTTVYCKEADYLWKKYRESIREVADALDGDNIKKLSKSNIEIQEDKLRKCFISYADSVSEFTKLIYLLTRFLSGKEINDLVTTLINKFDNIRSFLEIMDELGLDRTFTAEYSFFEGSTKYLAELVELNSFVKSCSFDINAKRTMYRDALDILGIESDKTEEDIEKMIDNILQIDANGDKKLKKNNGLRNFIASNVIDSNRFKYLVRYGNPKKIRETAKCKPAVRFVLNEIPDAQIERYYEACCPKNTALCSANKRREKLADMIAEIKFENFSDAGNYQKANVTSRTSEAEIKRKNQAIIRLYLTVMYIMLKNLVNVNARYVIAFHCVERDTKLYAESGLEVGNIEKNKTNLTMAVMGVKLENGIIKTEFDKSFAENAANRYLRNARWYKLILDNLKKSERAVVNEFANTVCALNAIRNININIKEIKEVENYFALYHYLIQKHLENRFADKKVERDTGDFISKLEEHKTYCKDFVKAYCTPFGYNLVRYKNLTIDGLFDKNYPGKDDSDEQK
# measurement-description: crRNA (strand 1, pre-loaded); Mg2+; 40 mM Tris-HCl pH 7.5, 150 mM NaCl, 6 mM MgCl2, 1 mM DTT, 0.1% Tween-20, 0.2 mg/ml BSA; 25 C; 10 min per concentration, then washed
# condition-details: tags: His6-TwinStrep-SUMO cleaved; N-terminal SNAP kept (SNAP-Surface 488); label: 3' end held by stalled T7 RNA polymerase
Keep it numeric: pKd is minus log10 of the concentration in mol/L.

Please give measured pKd of the following entry: target 1 MT 5'PFS AAC 3'PFS AAG (mixed) RNA 1: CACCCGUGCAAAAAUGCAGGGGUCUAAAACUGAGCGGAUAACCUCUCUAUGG RNA 2: GGGAAUGGAUCCACAUCUACGAAUUCAACCCAUAGAGAGGUUAUCCGCUCAAAGAGAUCGGAAGAGCACACGU
7.46

Please give measured pKd of the following entry: target 1 complement block 7-9 (mixed) RNA 1: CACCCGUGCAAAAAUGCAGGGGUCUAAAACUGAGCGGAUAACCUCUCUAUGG RNA 2: GGGAAUGGAUCCACAUCUACGAAUUCGUACCAUAGAGAGGUUUAGCGCUCACCGAGAUCGGAAGAGCACACGU
8.18

Please give measured pKd of the following entry: target 1 A1G (mixed) RNA 1: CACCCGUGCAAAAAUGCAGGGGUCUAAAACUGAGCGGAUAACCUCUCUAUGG RNA 2: GGGAAUGGAUCCACAUCUACGAAUUCGUACCAUAGAGAGGUUAUCCGCUCGCCGAGAUCGGAAGAGCACACGU
8.07

Please give measured pKd of the following entry: target 1 insG 3' of 14,insG 3' of 7 (mixed) RNA 1: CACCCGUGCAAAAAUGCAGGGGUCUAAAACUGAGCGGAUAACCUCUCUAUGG RNA 2: GGGAAUGGAUCCACAUCUACGAAUUCGUACCAUAGAGAGGGUUAUCGCGCUCACCGAGAUCGGAAGAGCACACGU
8.17

Please give measured pKd of the following entry: target 2 MT 5'PFS ACU 3'PFS AAA (mixed) RNA 1: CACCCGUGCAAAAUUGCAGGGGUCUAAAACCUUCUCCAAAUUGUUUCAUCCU RNA 2: GGGAAUGGAUCCACAUCUACGAAUUCACUAGGAUGAAACAAUUUGGAGAAGAAAAGAUCGGAAGAGCACACGU
8.33

Please give measured pKd of the following entry: target 1 A1C,C21U (mixed) RNA 1: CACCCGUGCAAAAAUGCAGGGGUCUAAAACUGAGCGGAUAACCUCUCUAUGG RNA 2: GGGAAUGGAUCCACAUCUACGAAUUCGUACUAUAGAGAGGUUAUCCGCUCCCCGAGAUCGGAAGAGCACACGU
7.89

Please give measured pKd of the following entry: target 2 MT 5'PFS UGG 3'PFS AAC (mixed) RNA 1: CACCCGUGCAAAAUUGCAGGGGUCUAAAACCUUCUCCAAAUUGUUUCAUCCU RNA 2: GGGAAUGGAUCCACAUCUACGAAUUCUGGAGGAUGAAACAAUUUGGAGAAGAACAGAUCGGAAGAGCACACGU
8.15

Please give measured pKd of the following entry: target 1 del2,del7 (mixed) RNA 1: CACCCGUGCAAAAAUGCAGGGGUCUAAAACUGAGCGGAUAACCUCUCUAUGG RNA 2: GGGAAUGGAUCCACAUCUACGAAUUCGUACCAUAGAGAGGUUAUCGCUACCGAGAUCGGAAGAGCACACGU
8.18
